System: NCI-H322M lung
Experiment: NCI tumour cell line growth inhibition, 384-well format; in the data active = GI50 below about 0.43 µM; inactive = the rest
Residues, ends and D or L forms follow the SMILES beside them. *: point of attachment. Cbz = O=C(OCc1ccccc1)*
Labels: y (active), n (inactive)

- compound: "Cc1ccccc1C(C(=O)NC1CCCCC1)N(C(=O)CNc1ccc(C#N)cc1)c1cccc(F)c1 (stereo unspecified)"
  system: "NCI-H322M lung"
  assigned.category: "n"
- compound: "Cc1sc2c(c1C)C(c1ccc(Cl)cc1)=N[C@@H](CC(=O)NCCCN1CCN(C)CC1)c1nnc(C)n1-2"
  system: "NCI-H322M lung"
  assigned.category: "y"
- compound: "Nc1ncn([C@H]2C[C@H](OP(=O)(O)OC[C@H]3O[C@@H](n4cnc5c(=O)[nH]c(N)nc54)C[C@@H]3O)[C@@H](CO)O2)c(=O)n1"
  system: "NCI-H322M lung"
  assigned.category: "n"
- compound: "C=CC(=O)Nc1cccc(Oc2nc(Nc3ccc(N4CCN(C)CC4)cc3OC)ncc2Cl)c1"
  system: "NCI-H322M lung"
  assigned.category: "y"
- compound: "CN(C)Cc1c(C(=O)NCCOc2ccc(C(=O)NO)cc2)oc2ccccc12"
  system: "NCI-H322M lung"
  assigned.category: "y"
- compound: "CC(C)C[C@@H](C=O)NC(=O)[C@H](CC(C)C)NC(=O)[C@H](CC(C)C)NC(=O)OCc1ccccc1 (Cbz-Leu-Leu-Leu-aldehyde)"
  system: "NCI-H322M lung"
  assigned.category: "y"

* * *

System: HCC-2998 colon
Test: NCI tumour cell line growth inhibition, 384-well format; in the data active = GI50 below about 0.43 µM; inactive = the rest
Labels: y for active, n for inactive

- compound: "Cc1[nH]nc2ncc(C(=O)N3CCC[C@H]3c3ccc(Cl)cc3)cc12"
  assigned.category: "n"
- compound: "Nc1ncn([C@H]2C[C@H](OP(=O)(O)OC[C@H]3O[C@@H](n4cnc5c(=O)[nH]c(N)nc54)C[C@@H]3O)[C@@H](CO)O2)c(=O)n1"
  assigned.category: "n"
- compound: "Cc1ccccc1C(C(=O)NC1CCCCC1)N(C(=O)CNc1ncccc1F)c1cccc(F)c1 (centres undefined)"
  assigned.category: "n"
- compound: "CN(C)Cc1c(C(=O)NCCOc2ccc(C(=O)NO)cc2)oc2ccccc12"
  assigned.category: "y"

* * *

Tested on: HOP-62 NSCLC
Experiment: NCI tumour cell line growth inhibition, 384-well format; in the data active = GI50 below about 0.43 µM; inactive = the rest
Residues, ends and D or L forms follow the SMILES beside them. *: point of attachment. Cbz = O=C(OCc1ccccc1)*
Labels: 1 (yes) = active, 0 (no) = inactive

- compound: "CN(C)Cc1c(C(=O)NCCOc2ccc(C(=O)NO)cc2)oc2ccccc12"
  assigned.category: "1 (yes)"
- compound: "Cc1ccccc1C(C(=O)NC1CCCCC1)N(C(=O)CNc1ccc(C#N)cc1)c1cccc(F)c1 (stereo not given)"
  assigned.category: "0 (no)"
- compound: "Nc1ncn([C@H]2C[C@H](OP(=O)(O)OC[C@H]3O[C@@H](n4cnc5c(=O)[nH]c(N)nc54)C[C@@H]3O)[C@@H](CO)O2)c(=O)n1"
  assigned.category: "0 (no)"
- compound: "Cc1[nH]nc2ncc(C(=O)N3CCC[C@H]3c3ccc(Cl)cc3)cc12"
  assigned.category: "0 (no)"
- compound: "CC(C)C[C@@H](C=O)NC(=O)[C@H](CC(C)C)NC(=O)[C@H](CC(C)C)NC(=O)OCc1ccccc1 (Cbz-Leu-Leu-Leu-aldehyde)"
  assigned.category: "1 (yes)"
